This collection of values is drawn from PubChem BioAssay AID342.

Tested on: Swiss mice, Sarcoma 180 sc, mean tumor weight T/C
Method description: NCI In Vivo Anticancer Drug Screen. Data for tumor model Sarcoma 180 (subcutaneous) in Swiss mice
Conditions used: endpoint: mean tumor weight; dose: 250.0 mg/kg/injection; schedule: Q01DX007 (ip); vehicle: carboxymethylcellulose (CMC); higher = larger tumour
Square brackets hold non-standard residues; d marks the D form. Peptide text beside a SMILES is read from it. ξ: configuration not given here. Ac5c = NC1(C(=O)O)CCCC1; ξS = NC(CO)C(=O)O
Assignment: determine reported T/C for the given compounds.

// for each compound below, give its T/C
1. NC(CO)C(=O)NC1(C(=O)O)CCCC1 (stereo not given) (H-[ξS]-[Ac5c]-OH)
2. CC1NC(=O)NC1CCCCCC(=O)O (stereo not given)
3. C[C@H](N)C(=O)N[C@@H]1[C@H]2C(=C(O)C[C@@H](O)[C@@H]2O)C(=O)O[C@@H]1C

["21 % of control", "73 % of control", "66 % of control"]

Below is a list of compounds. For each, state its recorded T/C.
1. CCOC(=O)CCCc1ccc(N/N=N/c2nc[nH]c2C(N)=O)cc1
2. O=CCC(O)C(O)C(O)CO (stereo not given)
3. C(=N\N(c1ccccc1)c1ccccc1)/C(=C/c1ccccc1)c1ccccc1
4. O=CN(O)CC(=O)O
5. Cc1cc(C(=O)NN)c(C#N)c(=O)[nH]1
6. c1ccc2nc3c(nc2c1)[nH]c1ccccc13
7. CCCC(=O)OCC1OC(n2cnc3c(=S)nc[nH]c32)C(OC(=O)CCC)C1OC(=O)CCC (stereo not given)
8. CNNCc1ccc(C(=O)NC(N)=O)cc1

["39 % of control", "75 % of control", "92 % of control", "83 % of control", "30 % of control", "114 % of control", "36 % of control", "30 % of control"]

Record T/C for all entries; do not skip any.
1. COC(=O)c1ccccc1NC(c1ccccn1)c1ccc2cccnc2c1O (stereo not given)
2. CC1(C)OCC(C(OC(=O)c2ccccc2)C(OC2CCCCO2)C2COC(C)(C)O2)O1 (stereo not given)
3. OCC1OC(n2cnc3c(=S)nc[nH]c32)C(O)C1O (stereo not given)
4. Cc1cc2nc3c(=O)[nH]c(=O)nc-3n(CC(O)C(O)C(O)C(O)CO)c2cc1C (stereo not given)

1: 88 % of control; 2: 100 % of control; 3: 25 % of control; 4: 60 % of control
